procedure.details: Wnt/beta-catenin pathway activators, primary screen, cell-based, plate reader, single point (AID 743398);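 also: 0% = neutral control wells and 100% = positive control wells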
assay.setup: Wnt/beta-catenin reporter cell assay, activator, at 9.35 µM, hits give high values
The campaign covered roughly 300,000 compounds. About 3,600 (1.2%) were called active. For the sample, actives were picked, then their nearest neighbours and some compounds at random.
So I've got a bunch of compounds here, and I need their activation values.

Request the reported activation associated with "Oc1cccc2cc(-c3ccncc3)cnc12"
4.6% (inactive)

For the compound "Cc1cccc(C)c1NC(=O)COC(=O)c1c(C)nn(-c2ccccc2)c1C" , what activation is on record?
2.07% (inactive)

Can you look up the measured activation of "O=C(/C=C/c1cnc2ccccc2n1)NC1CCCCCC1" for me?
49.2% (active)

Look up activation: "CS(=O)(=O)/C(C#N)=C/c1cccn1S(=O)(=O)c1ccc([N+](=O)[O-])cc1"
-1.05% (inactive)

Given "Cc1c(C(=O)N2CCCc3ccccc32)sc2nc(-c3ccccc3)cn12" , state its recorded activation.
51.4% (active)

Please give the measured activation for this compound: "CC(=O)c1ccc2c(c1)OCCOCCOc1ccc(C(C)=O)cc1OCCOCCO2"
1.05% (inactive)

For the compound "COc1cc2ccccc2cc1C(=O)Nc1ccccc1C" , what activation is on record?
38.1% (active)

// lookup activation for "O=C(Nc1ccccc1)c1ccc2c(c1)OCCCO2"
19.2% (inactive)

Field request: activation | item: "Cc1sc2ncnc(N3CCC(C(=O)NNC(=O)c4ccc(F)cc4)CC3)c2c1C"
3.2% (inactive)

Reported activation for "Cc1nc(NC(=O)c2ccc3c(c2)OCCO3)ccc1Br" : what is it?
48.4% (active)

Would you mind telling me what activation value was observed for "CC(C)c1cc(C(=O)NC2CCCCCC2)c2ccccc2n1" ?
-2.8% (inactive)

Given the entry "CC(C)c1ccc(/C=C/C(=O)NCCCN2CCOCC2)cc1" , report its measured activation.
-3.21% (inactive)

Name the reported activation value associated with the compound "COc1cc2ccccc2cc1C(=O)Nc1ccc(NC(=O)c2cccs2)cc1"
-6.22% (inactive)

Recorded activation for "Cc1cc(Br)cn2c(Cc3ccccc3C(F)(F)F)c(-c3ccc(C#N)cc3)nc12" , please?
-2.44% (inactive)

# get_value(readout='activation', item= "O=C(CSC(=S)N1CCOCC1)c1ccccc1" )
9.4% (inactive)

Record request: activation value, item "CO[C@@H]1CN(C)C(=O)c2cc(NC(=O)Nc3cc(F)ccc3F)ccc2OC[C@H](C)N(C(=O)c2ccccn2)C[C@@H]1C"
-7.29% (inactive)

I'd like to know its activation. The compound in question is "CN(Cc1ccccc1)S(=O)(=O)c1nnc(NC(=O)c2ccccc2F)s1"
-0.354% (inactive)

Requested read-out: activation. Entry: "C=CC1=CCN(S(=O)(=O)C(C)(C)C)[C@@H]1CCO"
-5.37% (inactive)

I am curious: what activation value has been reported for "O=C(NNc1ncnc2c1cnn2-c1ccccc1)c1ccco1" ?
0.184% (inactive)

Please give the measured activation for this compound: Cc1c(C(=O)NCC2CCCO2)sc2nc(-c3ccccc3)cn12 (stereo unspecified)
8.78% (inactive)

# input compound: "Cc1ccc(-n2ncc3c(Nc4cccc(C(=O)O)c4)ncnc32)cc1" ; wanted: its activation
42.2% (active)

activation for Clc1cccc2c1C1CC2CCN1Cc1ccccc1 (stereo unspecified) ?
-2.22% (inactive)

Can you share its activation? I mean this compound: "C[C@H](O)[C@@H]1CN2CCc3ccc(-c4ccc5c(c4)OCO5)cc3[C@@H]2C[C@@H]1N(C)C(=O)C1CCCCC1"
23.5% (inactive)

For "C[C@@H]1ON(C)[C@H]2C[C@H]3c4cc(N5CCOCC5)ccc4CCN3C[C@@H]12" , what is its reported activation?
-0.66% (inactive)

Any idea what activation was measured for "Cc1ccc(Nc2ncnc3c2cnn3C)c(C)c1" ?
0.858% (inactive)

Which activation is listed for "CCCc1nc2c3ccccc3ccn2c1Cc1ccccc1C(F)(F)F" ?
-0.94% (inactive)
